target: Dual specificity protein phosphatase 22 (Homo sapiens); test: Inhibition of GST-tagged human recombinant JSP1
Sequence (Q9NRW4 whole entry): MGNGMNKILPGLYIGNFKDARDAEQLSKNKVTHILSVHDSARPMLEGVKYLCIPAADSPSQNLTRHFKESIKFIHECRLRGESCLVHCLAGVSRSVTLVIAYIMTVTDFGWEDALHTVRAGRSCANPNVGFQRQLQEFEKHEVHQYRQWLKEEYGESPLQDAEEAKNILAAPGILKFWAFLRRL
reported.endpoint: pIC50
Scale: pIC50 equals -log10([C]), with [C] in mol/L.

Illustrative cases are given below, each with its answer.
O=C(NC1CCCC1)C1CCCN(C(=O)Nc2ccc3nc(-c4ccco4)c(-c4ccco4)nc3c2)C1 (stereo not given) | 5.52
CCCCN(C)C(=O)C1CCCN(C(=O)Nc2ccc3nc(-c4ccco4)c(-c4ccco4)nc3c2)C1 (stereo not given) | 5.26
CC(C)(C)NC(=O)C1CCCN(C(=O)Nc2ccc3nc(-c4ccco4)c(-c4ccco4)nc3c2)C1 (stereo not given) | 5.09
CCN(CC)C(=O)C1CCCN(C(=O)Nc2ccc3nc(-c4ccco4)c(-c4ccco4)nc3c2)C1 (stereo not given) | 4.92
CCCN(CCC)C(=O)C1CCCN(C(=O)Nc2ccc3nc(-c4ccco4)c(-c4ccco4)nc3c2)C1 (stereo not given) | 5.60

Q: Form field: reported pIC50 of CCCCN(CC)C(=O)C1CCCN(C(=O)Nc2ccc3nc(-c4ccco4)c(-c4ccco4)nc3c2)C1 (stereo not given)
Result: 5.63

Q: Form field: reported pIC50 of O=C(NC1CCCCC1)C1CCCN(C(=O)Nc2ccc3nc(-c4ccco4)c(-c4ccco4)nc3c2)C1 (stereo not given)
Result: 5.65
